Please provide measured IC50 for the entries that follow.
STUDY_SYSTEM: Kappa-type opioid receptor (Mus musculus, UniProt P33534)
Sequence (P33534 whole entry): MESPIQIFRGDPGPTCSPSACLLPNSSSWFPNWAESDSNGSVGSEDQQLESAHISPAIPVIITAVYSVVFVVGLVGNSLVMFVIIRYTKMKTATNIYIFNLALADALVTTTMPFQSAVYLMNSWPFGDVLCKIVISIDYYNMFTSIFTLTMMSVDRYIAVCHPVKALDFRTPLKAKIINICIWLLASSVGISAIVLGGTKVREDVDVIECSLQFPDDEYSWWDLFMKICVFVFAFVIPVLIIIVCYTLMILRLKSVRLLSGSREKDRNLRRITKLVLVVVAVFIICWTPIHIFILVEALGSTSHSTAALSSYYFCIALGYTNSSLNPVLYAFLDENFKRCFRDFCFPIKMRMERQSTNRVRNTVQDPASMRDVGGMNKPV
MEASUREMENT_DESCRIPTION: Compound was evaluated for kappa opioid receptor mediated agonistic effect in mouse vas deferens(MVD) preparations
Assay type: functional
Unit µM implied. Number only.

The compound Cc1ccc(/C=C/C(=O)N[C@@H]2CC[C@@]3(O)[C@H]4Cc5ccc(O)c6c5C3(CCN4CC3CC3)[C@H]2O6)cc1 showed IC50 equal to 17.1

# IC50 of O=C(/C=C/c1ccccc1)N[C@@H]1CC[C@@]2(O)[C@H]3Cc4ccc(O)c5c4[C@@]2(CCN3CC2CC2)[C@H]1O5 = 0.0056

* * *

List of Ki tested on Mu-type opioid receptor (Cavia porcellus, UniProt P97266).
Sequence (P97266 whole entry): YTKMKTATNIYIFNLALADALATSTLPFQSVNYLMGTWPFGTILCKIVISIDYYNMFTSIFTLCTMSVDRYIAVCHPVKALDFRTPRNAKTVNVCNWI
Provide the reading as a plain figure in nM.

Item: O=C(/C=C/c1ccc(Cl)cc1)N[C@@H]1CC[C@@]2(O)[C@H]3Cc4ccc(O)c5c4C2(CCN3CC2CC2)[C@H]1O5 | Ki: 0.1

Lab note: O=C(/C=C/c1ccc([N+](=O)[O-])cc1)N[C@@H]1CC[C@@]2(O)[C@H]3Cc4ccc(O)c5c4C2(CCN3CC2CC2)[C@H]1O5 gave Ki of 0.2

O=C(/C=C/c1ccccc1)N[C@@H]1CC[C@@]2(O)[C@H]3Cc4ccc(O)c5c4[C@@]2(CCN3CC2CC2)[C@H]1O5 has a reported Ki of 0.07

GET /value?item= Cc1ccc(/C=C/C(=O)N[C@@H]2CC[C@@]3(O)[C@H]4Cc5ccc(O)c6c5C3(CCN4CC3CC3)[C@H]2O6)cc1 &field=Ki returns 0.23

* * *

Provide the recorded pIC50 for the entries that follow.
STUDY_SYSTEM: Kappa-type opioid receptor (Cavia porcellus, UniProt P41144)
Sequence (P41144 whole entry): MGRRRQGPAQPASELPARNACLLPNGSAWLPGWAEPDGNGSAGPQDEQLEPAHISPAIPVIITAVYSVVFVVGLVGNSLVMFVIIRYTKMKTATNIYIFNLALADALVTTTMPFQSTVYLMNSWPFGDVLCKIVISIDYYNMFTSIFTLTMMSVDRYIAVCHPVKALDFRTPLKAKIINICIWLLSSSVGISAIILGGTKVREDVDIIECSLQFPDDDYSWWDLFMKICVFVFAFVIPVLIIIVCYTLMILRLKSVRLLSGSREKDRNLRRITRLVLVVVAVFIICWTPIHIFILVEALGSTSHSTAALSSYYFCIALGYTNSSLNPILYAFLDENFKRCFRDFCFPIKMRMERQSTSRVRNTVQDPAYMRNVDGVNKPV
MEASUREMENT_DESCRIPTION: Compound was evaluated for kappa opioid receptor mediated agonistic effect in electrically stimulated guinea-pig ileum
Lab note: report pIC50 as minus log10 of the concentration in molar units, number only.

Form: molecule = Cc1ccc(/C=C/C(=O)N[C@@H]2CC[C@@]3(O)[C@H]4Cc5ccc(O)c6c5C3(CCN4CC3CC3)[C@H]2O6)cc1 ; pIC50 = 7.90

Reported pIC50 for O=C(/C=C/c1ccccc1)N[C@@H]1CC[C@@]2(O)[C@H]3Cc4ccc(O)c5c4[C@@]2(CCN3CC2CC2)[C@H]1O5 was 9.40

pIC50 reading for O=C(/C=C/c1ccc([N+](=O)[O-])cc1)N[C@@H]1CC[C@@]2(O)[C@H]3Cc4ccc(O)c5c4C2(CCN3CC2CC2)[C@H]1O5 : 7.87

Measured pIC50 of O=C(/C=C/c1ccc(Cl)cc1)N[C@@H]1CC[C@@]2(O)[C@H]3Cc4ccc(O)c5c4C2(CCN3CC2CC2)[C@H]1O5 : 8.66

* * *

STUDY_SYSTEM: Kappa-type opioid receptor (Cavia porcellus)
MEASUREMENT_DESCRIPTION: Compound was evaluated for binding affinity against [3H]- U-69593 labeled kappa1 opioid receptor in guinea-pig brain homogenate.
Assay type: tissue-based
Exercise: state measured Ki for each of the compounds provided.
Give just the numeric value; nM need not be written.

Record O=C(/C=C/c1ccc(Cl)cc1)N[C@@H]1CC[C@@]2(O)[C@H]3Cc4ccc(O)c5c4C2(CCN3CC2CC2)[C@H]1O5 / Kappa-type opioid receptor (Cavia porcellus), Ki recorded as 0.2

The value of Ki recorded for Cc1ccc(/C=C/C(=O)N[C@@H]2CC[C@@]3(O)[C@H]4Cc5ccc(O)c6c5C3(CCN4CC3CC3)[C@H]2O6)cc1 when tested on Kappa-type opioid receptor (Cavia porcellus) reads 0.6

For the compound O=C(/C=C/c1ccc([N+](=O)[O-])cc1)N[C@@H]1CC[C@@]2(O)[C@H]3Cc4ccc(O)c5c4C2(CCN3CC2CC2)[C@H]1O5 , the measured Ki on Kappa-type opioid receptor (Cavia porcellus) was 0.8

Measured on Kappa-type opioid receptor (Cavia porcellus), O=C(/C=C/c1ccccc1)N[C@@H]1CC[C@@]2(O)[C@H]3Cc4ccc(O)c5c4[C@@]2(CCN3CC2CC2)[C@H]1O5 has a documented Ki of 0.2
